Molecular target: T1, human AMHRII (anti-Mullerian hormone receptor type 2) (human, UniProt Q16671 18-573)
T1 construct: whole, on cells; also called AMHR2; human AMHR2
T1 sequence (looked up): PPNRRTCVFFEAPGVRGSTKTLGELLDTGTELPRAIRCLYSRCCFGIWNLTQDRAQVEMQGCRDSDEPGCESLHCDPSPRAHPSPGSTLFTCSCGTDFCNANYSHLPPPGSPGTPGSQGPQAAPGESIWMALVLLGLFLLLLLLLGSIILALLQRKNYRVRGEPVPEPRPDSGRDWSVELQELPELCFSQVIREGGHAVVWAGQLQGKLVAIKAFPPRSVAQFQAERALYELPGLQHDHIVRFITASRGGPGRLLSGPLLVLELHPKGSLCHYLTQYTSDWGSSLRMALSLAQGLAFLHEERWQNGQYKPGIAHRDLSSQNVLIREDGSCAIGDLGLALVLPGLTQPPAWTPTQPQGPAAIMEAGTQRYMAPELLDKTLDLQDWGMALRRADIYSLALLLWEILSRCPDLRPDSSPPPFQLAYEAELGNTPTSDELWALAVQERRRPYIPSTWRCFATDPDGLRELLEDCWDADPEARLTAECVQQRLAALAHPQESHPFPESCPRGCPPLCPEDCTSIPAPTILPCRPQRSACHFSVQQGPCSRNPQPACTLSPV
Test: FACS on CHO-K1 cells over-expressing human AMHR2
metric-name: Top (MFI)
Number only, in MFI; omit the unit.

Examples from the recorded data:
[[record]]
binder = "31D9B3 VH1.2-VL2.2 hIgG1 (antibody, V domains shown, Humanized, PTM de-risked, human IgG1; also called 31D9B3 VH1.2-VL2.2 hlgG1) VH: QVQLVQSGAEVKKPGASVKVSCKASGYTFTDYWVSWVRQAPGQGLEWMGEIYPKNDVSNFNEKFKGRVTMTTDTSTSTAYMELRSLRSDDTAVYYCARQRDYWGQGTLVTVSS VL: DVVMTQSPLSLPVTLGQPASISCRSSQSLEYGDRYTYLEWYLQRPGQSPRLLIYGVSNRFSGVPDRFSGSGSGTDFTLKISRVEAEDVGVYYCFQATHDPNTFGQGTKLEIK"
measurement_units = "MFI"
measured = 22000

[[record]]
binder = "31D9B3 VH1.3-VL2 hIgG1 (antibody, V domains shown, Humanized, PTM de-risked (VH G55Q), human IgG1; also called 31D9B3 VH1.3-VL2 hlgG1) VH: QVQLVQSGAEVKKPGASVKVSCKASGYTFTDYWVSWVRQAPGQGLEWMGEIYPKNQVSNFNEKFKGRVTMTTDTSTSTAYMELRSLRSDDTAVYYCARQRDYWGQGTLVTVSS VL: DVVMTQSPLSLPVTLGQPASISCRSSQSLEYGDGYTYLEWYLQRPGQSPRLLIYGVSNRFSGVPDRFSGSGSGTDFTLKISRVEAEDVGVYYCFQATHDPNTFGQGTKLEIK"
measurement_units = "MFI"
measured = 28000

[[record]]
binder = "31D9B3 VH1.3-VL2.1 hIgG1 (antibody, V domains shown, Humanized, PTM de-risked, human IgG1; also called 31D9B3 VH1.3-VL2.1 hlgG1) VH: QVQLVQSGAEVKKPGASVKVSCKASGYTFTDYWVSWVRQAPGQGLEWMGEIYPKNQVSNFNEKFKGRVTMTTDTSTSTAYMELRSLRSDDTAVYYCARQRDYWGQGTLVTVSS VL: DVVMTQSPLSLPVTLGQPASISCRSSQSLEYGSGYTYLEWYLQRPGQSPRLLIYGVSNRFSGVPDRFSGSGSGTDFTLKISRVEAEDVGVYYCFQATHDPNTFGQGTKLEIK"
measurement_units = "MFI"
measured = 10900


Now look at this entry.
INPUT: So what's the measured Top (MFI) for this one? 31D9B3 VH1.2-VL2.3 hIgG1 (antibody, V domains shown, Humanized, PTM de-risked, human IgG1; also called 31D9B3 VH1.2-VL2.3 hlgG1) VH: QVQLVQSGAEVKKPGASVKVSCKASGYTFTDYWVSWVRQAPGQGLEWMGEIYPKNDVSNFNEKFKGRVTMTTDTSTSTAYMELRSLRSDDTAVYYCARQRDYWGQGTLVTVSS VL: DVVMTQSPLSLPVTLGQPASISCRSSQSLEYGTGYTYLEWYLQRPGQSPRLLIYGVSNRFSGVPDRFSGSGSGTDFTLKISRVEAEDVGVYYCFQATHDPNTFGQGTKLEIK
OUTPUT: 12900
